Target: voltage-gated K+ channel KCNQ2 (Homo sapiens, UniProt O43526)
Sequence (O43526 whole entry): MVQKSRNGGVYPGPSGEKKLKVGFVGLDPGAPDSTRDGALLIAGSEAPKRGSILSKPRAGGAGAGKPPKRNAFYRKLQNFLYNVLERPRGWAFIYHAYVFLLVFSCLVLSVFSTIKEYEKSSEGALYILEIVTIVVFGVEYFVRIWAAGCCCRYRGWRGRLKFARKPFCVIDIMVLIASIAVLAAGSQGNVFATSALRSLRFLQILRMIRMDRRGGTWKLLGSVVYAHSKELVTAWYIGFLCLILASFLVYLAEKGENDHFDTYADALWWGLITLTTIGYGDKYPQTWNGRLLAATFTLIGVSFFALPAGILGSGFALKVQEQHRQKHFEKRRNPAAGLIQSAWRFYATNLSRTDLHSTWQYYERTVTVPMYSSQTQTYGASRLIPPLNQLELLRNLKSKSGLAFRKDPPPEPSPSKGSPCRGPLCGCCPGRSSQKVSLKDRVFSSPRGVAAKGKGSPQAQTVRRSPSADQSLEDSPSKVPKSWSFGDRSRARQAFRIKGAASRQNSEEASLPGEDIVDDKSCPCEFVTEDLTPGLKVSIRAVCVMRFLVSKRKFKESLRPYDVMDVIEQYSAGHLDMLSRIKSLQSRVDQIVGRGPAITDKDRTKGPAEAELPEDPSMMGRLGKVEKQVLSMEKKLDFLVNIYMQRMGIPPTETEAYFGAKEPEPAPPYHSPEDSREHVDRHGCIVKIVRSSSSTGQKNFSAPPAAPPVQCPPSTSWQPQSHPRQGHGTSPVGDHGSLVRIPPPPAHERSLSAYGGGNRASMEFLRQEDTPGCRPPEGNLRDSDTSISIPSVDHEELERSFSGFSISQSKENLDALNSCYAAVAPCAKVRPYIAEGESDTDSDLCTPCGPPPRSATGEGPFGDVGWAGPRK
Assay: thallium flux assay to detect openers of KCNQ potassium channels
Conditions: thallium influx assay; 10 point concentration series, 1:3 dilutions; concentration yielding 50% of maximal response (opening)
Entries and their pEC50
Schema: pEC50 number; meaning minus log10 of the concentration expressed in molar units.

{"MOLECULE_SMILES": "C[C@H](NC(=O)/C=C/c1ccc(F)cc1F)c1cccc(N2CCN(c3ccccn3)CC2)c1", "pEC50": 9.00}

Note to self: pEC50 recorded for C[C@H](NC(=O)/C=C/c1ccc(Cl)cc1F)c1cccc(N2CCN(c3ccccn3)CC2)c1 was 9.00

Query C[C@H](NC(=O)/C=C/c1cc(F)ccc1F)c1cccc(N2CCN(c3ccccn3)CC2)c1 yields pEC50 of 8.40

// pEC50 value for C[C@H](NC(=O)/C=C/c1cccc(F)c1F)c1cccc(N2CCN(c3ccccn3)CC2)c1 : 9.00

Summary for this compound, C[C@H](NC(=O)/C=C/c1c(F)cccc1F)c1cccc(N2CCN(c3ccccn3)CC2)c1 : pEC50 is 6.55

Measured pEC50 of C[C@H](NC(=O)/C=C/c1ccccc1F)c1cccc(N2CCN(c3ccccn3)CC2)c1 : 6.32
